- system_under_test: human BCL6 BTB domain (Homo sapiens, UniProt P41182)
- assay_setup: mean of replicates
Quick reference for BCL6 TR-FRET pIC50 mean among some compounds
Returns: the value as a bare number; no unit string appended.

{"compound": "Cn1c(=O)c2c(c3cc(Nc4nc(N5CCC(F)(F)[C@@H](CO)C5)ncc4Cl)ccc31)N[C@@H](C1CC1)C(F)(F)CO2", "system_under_test": "human BCL6 BTB domain (Homo sapiens, UniProt P41182)", "BCL6 TR-FRET pIC50 mean": 8.8118}
{"compound": "CC(=O)N[C@@H]1C[C@H](C)CN(c2ncc(Cl)c(Nc3ccc4c(c3)c3c(c(=O)n4C)OCC(F)(F)[C@H](C4CC4)N3)n2)C1 [10a]", "system_under_test": "human BCL6 BTB domain (Homo sapiens, UniProt P41182)", "BCL6 TR-FRET pIC50 mean": 8.4394}
{"compound": "Cn1c(=O)c2c(c3cc(Nc4nc(N5CCC(F)(F)[C@H](CO)C5)ncc4Cl)ccc31)N[C@@H](C1CC1)C(F)(F)CO2", "system_under_test": "human BCL6 BTB domain (Homo sapiens, UniProt P41182)", "BCL6 TR-FRET pIC50 mean": 8.3907}

Now let's try a different one.
Entry C[C@@H]1CCCN(c2ncc(Cl)c(Nc3ccc4c(c3)c3c(c(=O)n4C)OCC(F)(F)[C@H](C4CC4)N3)n2)C1 [15b] ; BCL6 TR-FRET pIC50 mean = 7.6089

====

- procedure_text: Microsomal clearance assay (RLM)
- Format: in vitro ADME
- assay_setup: female, Sprague-Dawley, pH 7.4; rat liver microsomes, 1 μM compound
outcome_measure: microsomal CLint at 0.5 h, 1 µM (µL/min/mg)
Quick note: give the figure in µL/min/mg, leave out the unit.

Field: example entries. Status: answers known.
{"compound": "C[C@@H]1CN(c2ncc(Cl)c(Nc3ccc4c(c3)n(CCC(C)(C)O)c(=O)n4C)n2)C[C@H](C)C1(F)F", "microsomal CLint at 0.5 h, 1 µM, µL/min/mg": 10}
{"compound": "Cn1c(=O)c2c(c3cc(Nc4nc(N5CCC(F)(F)[C@@H](CO)C5)ncc4Cl)ccc31)N[C@@H](C1CC1)C(F)(F)CO2", "microsomal CLint at 0.5 h, 1 µM, µL/min/mg": 9}

Sample C[C@H]1C[C@@H](O)CN(c2ncc(Cl)c(Nc3ccc4c(c3)c3c(c(=O)n4C)OCC(F)(F)[C@H](C4CC4)N3)n2)C1 [12a CCT373566] ; microsomal CLint at 0.5 h, 1 µM observed: 3

====

- system_under_test: human BCL6 BTB domain (Homo sapiens)
- assay_setup: read-out: BCL6 TR-FRET IC50 individual replicates; single replicate values
Documented IC50 across a set of compounds
Give your result in nM as a bare value.

{"compound": "Cn1c(=O)c2c(c3cc(Nc4nc(N5CCC[C@@H](O)C5)ncc4Cl)ccc31)N[C@@H](C1CC1)C(F)(F)CO2 [14a]", "measure_unit": "nM", "quantitative_result": 3.1}
{"compound": "Cn1c(=O)c2c(c3cc(Nc4nc(N5CCC(F)(F)[C@H](CO)C5)ncc4Cl)ccc31)N[C@@H](C1CC1)C(F)(F)CO2 [9b]", "measure_unit": "nM", "quantitative_result": 4.2}
{"compound": "CC(=O)N[C@H]1C[C@@H](C)CN(c2ncc(Cl)c(Nc3ccc4c(c3)c3c(c(=O)n4C)OCC(F)(F)[C@H](C4CC4)N3)n2)C1 [10b]", "measure_unit": "nM", "quantitative_result": 3}
{"compound": "Cn1c(=O)c2c(c3cc(Nc4nc(N5CCC[C@H](O)C5)ncc4Cl)ccc31)N[C@@H](C1CC1)C(F)(F)CO2 [14b]", "measure_unit": "nM", "quantitative_result": 2.6}
{"compound": "C[C@@H]1C[C@H](O)CN(c2ncc(Cl)c(Nc3ccc4c(c3)c3c(c(=O)n4C)OCC(F)(F)[C@H](C4CC4)N3)n2)C1 [12b CCT373567]", "measure_unit": "nM", "quantitative_result": 2.8}
{"compound": "C[C@@H]1CCCN(c2ncc(Cl)c(Nc3ccc4c(c3)c3c(c(=O)n4C)OCC(F)(F)[C@H](C4CC4)N3)n2)C1 [15b]", "measure_unit": "nM", "quantitative_result": 23.8}

Then there is this compound:
Documented IC50 of C[C@@H]1C[C@@H](O)CN(c2ncc(Cl)c(Nc3ccc4c(c3)c3c(c(=O)n4C)OCC(F)(F)[C@H](C4CC4)N3)n2)C1 [13a] : 9.9

====

- system_under_test: CAV1.2 (Homo sapiens)
- procedure_text: SAFETYScan Ion Channel, Blocker
- Assay type: cell-based
- assay_setup: read-out: Max Response
outcome_measure: Emax (%)
Give just the numeric value; % need not be written.

Emax recorded for this molecule, C[C@H]1C[C@@H](O)CN(c2ncc(Cl)c(Nc3ccc4c(c3)c3c(c(=O)n4C)OCC(F)(F)[C@H](C4CC4)N3)n2)C1 [12a CCT373566] , is 0

====

- system_under_test: ADORA2A (Homo sapiens)
- Sequence (P29274 whole entry): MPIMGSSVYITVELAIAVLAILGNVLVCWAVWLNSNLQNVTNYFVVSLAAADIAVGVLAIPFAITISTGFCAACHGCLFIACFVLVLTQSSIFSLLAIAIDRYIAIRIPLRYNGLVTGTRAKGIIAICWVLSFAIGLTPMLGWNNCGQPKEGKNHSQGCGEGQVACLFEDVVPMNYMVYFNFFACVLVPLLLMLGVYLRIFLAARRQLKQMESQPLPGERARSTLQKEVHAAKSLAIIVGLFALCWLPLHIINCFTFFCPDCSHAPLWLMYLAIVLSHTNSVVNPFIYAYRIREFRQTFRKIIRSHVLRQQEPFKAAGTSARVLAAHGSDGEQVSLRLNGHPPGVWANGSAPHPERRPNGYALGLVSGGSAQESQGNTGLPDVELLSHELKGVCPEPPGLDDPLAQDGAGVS
- procedure_text: SAFETYScan GPCR Calcium Flux, Agonist
- assay_setup: read-out: RC50 (EC50)
outcome_measure: EC50

// field: EC50; key: C[C@H]1C[C@@H](O)CN(c2ncc(Cl)c(Nc3ccc4c(c3)c3c(c(=O)n4C)OCC(F)(F)[C@H](C4CC4)N3)n2)C1 [12a CCT373566] ; value = > 10 µM

====

- system_under_test: PDE3A (Homo sapiens)
- Sequence (Q14432 whole entry): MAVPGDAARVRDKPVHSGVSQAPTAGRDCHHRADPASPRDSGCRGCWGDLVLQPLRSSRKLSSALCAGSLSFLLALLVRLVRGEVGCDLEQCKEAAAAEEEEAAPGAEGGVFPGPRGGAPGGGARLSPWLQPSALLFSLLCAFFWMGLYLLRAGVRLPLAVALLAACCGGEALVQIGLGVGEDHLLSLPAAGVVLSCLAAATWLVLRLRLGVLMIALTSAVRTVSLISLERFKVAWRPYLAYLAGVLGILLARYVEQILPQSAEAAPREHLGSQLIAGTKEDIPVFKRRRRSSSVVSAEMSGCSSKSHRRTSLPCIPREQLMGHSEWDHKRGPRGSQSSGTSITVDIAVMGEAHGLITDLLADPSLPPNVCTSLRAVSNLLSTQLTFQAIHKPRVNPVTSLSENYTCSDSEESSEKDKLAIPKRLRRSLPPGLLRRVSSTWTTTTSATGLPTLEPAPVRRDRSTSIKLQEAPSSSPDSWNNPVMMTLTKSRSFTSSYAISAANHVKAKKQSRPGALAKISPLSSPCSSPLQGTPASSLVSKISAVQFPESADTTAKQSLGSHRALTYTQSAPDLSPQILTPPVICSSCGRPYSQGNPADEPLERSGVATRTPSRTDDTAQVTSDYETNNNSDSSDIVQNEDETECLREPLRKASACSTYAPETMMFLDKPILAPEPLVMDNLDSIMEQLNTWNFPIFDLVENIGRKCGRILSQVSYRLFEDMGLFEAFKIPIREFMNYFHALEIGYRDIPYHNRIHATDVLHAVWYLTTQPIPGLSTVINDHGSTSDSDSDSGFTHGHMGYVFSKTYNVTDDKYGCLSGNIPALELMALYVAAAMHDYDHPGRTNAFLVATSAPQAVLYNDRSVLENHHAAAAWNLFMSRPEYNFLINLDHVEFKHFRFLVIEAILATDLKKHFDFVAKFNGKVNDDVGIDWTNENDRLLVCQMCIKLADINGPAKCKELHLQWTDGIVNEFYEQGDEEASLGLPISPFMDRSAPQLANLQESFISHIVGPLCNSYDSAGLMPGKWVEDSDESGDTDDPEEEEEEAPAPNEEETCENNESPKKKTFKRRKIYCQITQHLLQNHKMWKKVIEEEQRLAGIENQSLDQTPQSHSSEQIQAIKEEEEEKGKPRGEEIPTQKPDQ
outcome_measure: IC50

So for C[C@H]1C[C@@H](O)CN(c2ncc(Cl)c(Nc3ccc4c(c3)c3c(c(=O)n4C)OCC(F)(F)[C@H](C4CC4)N3)n2)C1 [12a CCT373566] , the logged IC50 turned out to be > 10 µM

====

- system_under_test: CNR1 (Homo sapiens, UniProt P21554)
- Sequence (P21554 whole entry): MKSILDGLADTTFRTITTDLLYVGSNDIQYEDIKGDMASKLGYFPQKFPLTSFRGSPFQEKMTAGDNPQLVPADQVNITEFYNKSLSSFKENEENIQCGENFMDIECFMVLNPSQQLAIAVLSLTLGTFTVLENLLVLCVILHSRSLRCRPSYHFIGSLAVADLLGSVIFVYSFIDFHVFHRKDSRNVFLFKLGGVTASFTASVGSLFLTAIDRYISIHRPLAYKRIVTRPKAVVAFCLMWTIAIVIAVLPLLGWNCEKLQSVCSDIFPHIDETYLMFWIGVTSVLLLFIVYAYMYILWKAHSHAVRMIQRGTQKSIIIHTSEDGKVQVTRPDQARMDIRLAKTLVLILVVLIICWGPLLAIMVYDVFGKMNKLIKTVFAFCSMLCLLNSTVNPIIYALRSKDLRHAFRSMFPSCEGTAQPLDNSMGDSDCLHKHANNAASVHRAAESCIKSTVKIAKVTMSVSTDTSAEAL
- procedure_text: SAFETYScan GPCR cAMP, Agonist
- assay_setup: read-out: RC50 (EC50)
outcome_measure: EC50

Lookup result for C[C@H]1C[C@@H](O)CN(c2ncc(Cl)c(Nc3ccc4c(c3)c3c(c(=O)n4C)OCC(F)(F)[C@H](C4CC4)N3)n2)C1 [12a CCT373566] ; measured EC50: > 10 µM

====

Listed next: entries and their corresponding microsomal CLint at 1 μM.
- procedure_text: Microsomal clearance assay (RLM)
- Type: in vitro ADME
- assay_setup: female, Sprague-Dawley, pH 7.4; rat liver microsomes, 1 μM compound
# unit: µL/min/mg | format: bare number

{"molecule": "C[C@H]1C[C@@H](O)CN(c2ncc(Cl)c(Nc3ccc4c(c3)n(CCC(C)(C)O)c(=O)n4C)n2)C1 (relative stereo)", "microsomal CLint at 1 μM, µL/min/mg": 14}

Shifting focus to the molecule that follows.
microsomal CLint at 1 μM in this record for C[C@@H]1C[C@H](O)CN(c2ncc(Cl)c(Nc3ccc4c(c3)c3c(c(=O)n4C)OCC(F)(F)[C@H](C4CC4)N3)n2)C1 [12b CCT373567] : 3

====

- system_under_test: DRD1 (Homo sapiens)
- Sequence (P21728 whole entry): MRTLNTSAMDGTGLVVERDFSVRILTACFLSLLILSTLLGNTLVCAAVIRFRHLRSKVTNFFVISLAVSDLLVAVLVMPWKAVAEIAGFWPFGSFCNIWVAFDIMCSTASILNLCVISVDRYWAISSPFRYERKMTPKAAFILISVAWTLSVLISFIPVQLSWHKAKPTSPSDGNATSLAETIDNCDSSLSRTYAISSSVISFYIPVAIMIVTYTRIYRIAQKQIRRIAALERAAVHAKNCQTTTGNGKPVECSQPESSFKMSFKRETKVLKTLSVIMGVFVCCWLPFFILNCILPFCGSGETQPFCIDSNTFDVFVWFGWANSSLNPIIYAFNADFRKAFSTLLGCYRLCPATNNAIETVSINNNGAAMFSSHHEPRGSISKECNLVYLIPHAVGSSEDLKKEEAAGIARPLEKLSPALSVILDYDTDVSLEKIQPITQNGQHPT
- procedure_text: SAFETYScan GPCR cAMP, Agonist
- assay_setup: read-out: RC50 (EC50)
pEC50: −log10 of the molar value.
outcome_measure: pEC50

Value of measured pEC50 for the entry C[C@H]1C[C@@H](O)CN(c2ncc(Cl)c(Nc3ccc4c(c3)c3c(c(=O)n4C)OCC(F)(F)[C@H](C4CC4)N3)n2)C1 [12a CCT373566] : < 5.00

====

- system_under_test: SERT (Homo sapiens, UniProt P31645)
- Sequence (P31645 whole entry): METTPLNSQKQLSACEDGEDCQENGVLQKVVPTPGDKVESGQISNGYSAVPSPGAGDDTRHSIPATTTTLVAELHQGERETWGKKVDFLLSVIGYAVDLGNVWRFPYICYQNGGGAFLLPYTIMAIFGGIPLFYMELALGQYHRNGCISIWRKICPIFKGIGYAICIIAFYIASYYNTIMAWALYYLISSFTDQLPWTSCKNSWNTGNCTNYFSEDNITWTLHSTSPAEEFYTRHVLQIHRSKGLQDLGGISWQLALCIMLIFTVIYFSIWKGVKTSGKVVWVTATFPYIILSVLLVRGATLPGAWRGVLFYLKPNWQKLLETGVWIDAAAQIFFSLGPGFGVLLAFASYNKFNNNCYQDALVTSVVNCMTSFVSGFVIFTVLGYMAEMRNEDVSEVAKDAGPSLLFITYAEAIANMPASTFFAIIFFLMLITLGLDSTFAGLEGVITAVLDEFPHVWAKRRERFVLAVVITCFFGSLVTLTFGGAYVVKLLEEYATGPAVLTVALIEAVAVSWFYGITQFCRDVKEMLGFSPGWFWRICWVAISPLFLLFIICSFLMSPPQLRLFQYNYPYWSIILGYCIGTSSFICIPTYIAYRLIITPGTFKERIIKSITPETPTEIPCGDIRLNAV
- procedure_text: SAFETYScan Transporter, Blocker
- assay_setup: read-out: RC50 (IC50)
outcome_measure: IC50

Looking up C[C@H]1C[C@@H](O)CN(c2ncc(Cl)c(Nc3ccc4c(c3)c3c(c(=O)n4C)OCC(F)(F)[C@H](C4CC4)N3)n2)C1 [12a CCT373566] , I found its IC50 recorded as > 10 µM

====

- system_under_test: nAChR(a4/b2) (Homo sapiens, UniProt P17787+P43681)
- Sequence (P43681 29-627 limits assumed): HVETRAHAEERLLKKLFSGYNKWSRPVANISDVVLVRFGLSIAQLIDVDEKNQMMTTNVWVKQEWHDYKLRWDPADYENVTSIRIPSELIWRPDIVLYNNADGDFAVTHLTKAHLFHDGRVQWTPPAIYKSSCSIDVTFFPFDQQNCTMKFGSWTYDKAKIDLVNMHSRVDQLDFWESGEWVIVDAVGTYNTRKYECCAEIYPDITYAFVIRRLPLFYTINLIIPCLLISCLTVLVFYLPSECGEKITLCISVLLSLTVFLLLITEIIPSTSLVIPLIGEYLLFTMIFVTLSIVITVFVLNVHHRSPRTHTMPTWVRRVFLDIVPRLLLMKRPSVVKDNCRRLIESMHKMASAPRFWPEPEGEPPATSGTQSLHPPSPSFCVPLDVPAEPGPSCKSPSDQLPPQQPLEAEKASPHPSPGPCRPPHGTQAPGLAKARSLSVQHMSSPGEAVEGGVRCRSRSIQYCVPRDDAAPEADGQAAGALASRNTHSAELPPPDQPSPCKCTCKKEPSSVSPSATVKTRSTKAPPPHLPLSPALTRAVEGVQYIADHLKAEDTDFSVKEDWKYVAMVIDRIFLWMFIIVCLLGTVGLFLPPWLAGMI
- Sequence (P17787 26-502): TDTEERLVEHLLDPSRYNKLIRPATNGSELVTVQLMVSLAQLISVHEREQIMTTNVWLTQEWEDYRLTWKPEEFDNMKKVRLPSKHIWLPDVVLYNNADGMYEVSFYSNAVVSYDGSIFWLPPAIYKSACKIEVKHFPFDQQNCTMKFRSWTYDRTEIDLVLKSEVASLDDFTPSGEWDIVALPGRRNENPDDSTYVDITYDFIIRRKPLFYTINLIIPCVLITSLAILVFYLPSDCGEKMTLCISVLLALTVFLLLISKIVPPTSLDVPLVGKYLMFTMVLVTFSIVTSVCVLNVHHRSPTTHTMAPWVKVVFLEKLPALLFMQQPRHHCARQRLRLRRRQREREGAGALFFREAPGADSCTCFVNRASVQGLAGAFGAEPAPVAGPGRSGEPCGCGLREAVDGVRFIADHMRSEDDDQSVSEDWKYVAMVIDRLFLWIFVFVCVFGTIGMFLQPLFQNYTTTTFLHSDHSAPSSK
- procedure_text: SAFETYScan Ion Channel, Opener
- assay_setup: read-out: RC50 (EC50)
outcome_measure: EC50

The reported value for C[C@H]1C[C@@H](O)CN(c2ncc(Cl)c(Nc3ccc4c(c3)c3c(c(=O)n4C)OCC(F)(F)[C@H](C4CC4)N3)n2)C1 [12a CCT373566] in terms of EC50 is > 10 µM

====

- procedure_text: In vivo pharmacokinetic study in Balb/C mice
- Set-up: species or system mouse
- assay_setup: Balb/C, mouse, whole blood, intravenous, 1 mg/kg; initial PK studies; read-out: Vss
outcome_measure: Vd (L/kg)
Answer with a number only, understood to be in L/kg.

Vd reported for this compound C[C@H]1C[C@@H](O)CN(c2ncc(Cl)c(Nc3ccc4c(c3)c3c(c(=O)n4C)OCC(F)(F)[C@H](C4CC4)N3)n2)C1 [12a CCT373566] : 0.47
